Test system: Escherichia coli TOP10
Test: shrunken log2 fold change of peptide-encoding DNA abundance (4.5 h post-induction vs induction); higher = less antimicrobial activity (less host growth inhibition)
Conditions: time post-induction: 4.5 h; library: site-saturation at positions 5, 18, 19, 20
measured-parameter: shrunken log2 fold change

1. RRIRGRPPRLPRPRPRPDAFPRP	1.87
2. RRIRKRPPRLPRPRPRPCLTPRP	-0.0179
3. RRIRPRPPRLPRPRPRPAGVPRP	0.392
4. RRIRMRPPRLPRPRPRPYQVPRP	-0.393

###

Test system: Escherichia coli TOP10;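 also: peptides expressed intracellularly from a pBAD plasmid library in pooled LB shake-flask culture, induced with 0.3% L-arabinose, DNA abundance read by NGS, three biological replicates, DESeq2 with apeglm shrinkage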
Assay: shrunken log2 fold change of peptide-encoding DNA abundance (4.5 h post-induction vs induction); higher = less antimicrobial activity (less host growth inhibition)
Conditions: time post-induction: 4.5 h; library: site-saturation at positions 5, 18, 19, 20
Decision: shrunken log2 fold change compared against 0.04; not below it gives 1, below it gives 0.

1) RRIRRRPPRLPRPRPRPEKEPRP	1
2) RRIRWRPPRLPRPRPRPKTMPRP	1
3) RRIRCRPPRLPRPRPRPMADPRP	0
4) RRIRARPPRLPRPRPRPGDKPRP	1
5) RRIRKRPPRLPRPRPRPGMIPRP	0
6) RRIRFRPPRLPRPRPRPEDNPRP	0
7) RRIRHRPPRLPRPRPRPMTCPRP	0
8) RRIRWRPPRLPRPRPRPTHLPRP	1
9) RRIRCRPPRLPRPRPRPNAIPRP	1
10) RRIRTRPPRLPRPRPRPMNCPRP	0
11) RRIRARPPRLPRPRPRPQCVPRP	1
12) RRIRVRPPRLPRPRPRPMPIPRP	1
13) RRIRERPPRLPRPRPRPYVRPRP	0
14) RRIRHRPPRLPRPRPRPTCPPRP	1
15) RRIRVRPPRLPRPRPRPRLCPRP	1
16) RRIRDRPPRLPRPRPRPHKRPRP	0
17) RRIRPRPPRLPRPRPRPWENPRP	0
18) RRIRKRPPRLPRPRPRPIDVPRP	1
19) RRIRPRPPRLPRPRPRPQIRPRP	0
20) RRIRTRPPRLPRPRPRPGPNPRP	0
21) RRIRKRPPRLPRPRPRPLCEPRP	1
22) RRIRFRPPRLPRPRPRPYRFPRP	0
23) RRIRMRPPRLPRPRPRPIGVPRP	1
